Reference source: patent US10519114B2

pKi: −log10 of the molar value.
Dear all, this message contains pKi results, target or system rat δ (C6-DOR) opioid receptor (Rattus norvegicus, UniProt P33533).
measured_parameter: pKi

• CCCN1CC[C@@H](NC(=O)[C@@H](N)Cc2c(C)cc(O)cc2C)c2cc(Cc3ccccc3)ccc21 = 8.76
• Cc1cc(O)cc(C)c1C[C@H](N)C(=O)N[C@@H]1CCNc2ccc(CN3CCc4ccc(F)cc4C3)cc21 = 7.78
• Cc1cc(O)cc(C)c1C[C@H](N)C(=O)N[C@@H]1CCNc2cc(O)c(Cc3ccccc3)cc21 = 8.56
• COc1cc(Cc2ccccc2)cc2c1NCC[C@H]2NC(=O)[C@@H](N)Cc1c(C)cc(O)cc1C = 8.51
• CCCCCCc1ccc2c(c1)[C@H](NC(=O)[C@@H](N)Cc1c(C)cc(O)cc1C)CCN2 = 8.23
• Cc1cc(O)cc(C)c1C[C@H](N)C(=O)N[C@@H]1CCNc2ccc(CC3Cc4ccccc4C3C)cc21 (stereo partly shown) = 7.92
• Cc1cc(O)cc(C)c1C[C@H](N)C(=O)N[C@@H]1CCN2CCCc3cc(Cc4ccccc4)cc1c32 = 8.65

###

- tgt: rat μ (C6-MOR) opioid receptor (Rattus norvegicus)
- assay_notes: Stimulation of [35S]GTPγS binding, MOR
- particulars: [35S]GTPγS binding, C6-MOR membranes; mean ± standard error
EC50: recorded values
measured_parameter: EC50 (nM)

* Cc1cc(O)cc(C)c1C[C@H](N)C(=O)N[C@@H]1CCNc2ccc(CN3CCNCC3)cc21 [Compound 1059] | 90.5
* CC(=O)N1CC[C@@H](NC(=O)[C@@H](N)Cc2c(C)cc(O)cc2C)c2cc(Cc3ccccc3)cc(C)c21 [Compound 1055] | 7.05
* Cc1cc(O)cc(C)c1C[C@H](N)C(=O)N[C@H]1CCOc2ccc(Cc3ccccc3)cc21 [Compound 1112] | 654
* Cc1cc(O)cc(C)c1C[C@H](N)C(=O)N[C@@H]1CCNc2ccc(S(=O)(=O)c3ccccc3)cc21 [Compound 1052] | 12.9

###

Entries and their Ki
- tgt: rat μ (C6-MOR) opioid receptor (Rattus norvegicus, UniProt P33535)
- Sequence (P33535 whole entry): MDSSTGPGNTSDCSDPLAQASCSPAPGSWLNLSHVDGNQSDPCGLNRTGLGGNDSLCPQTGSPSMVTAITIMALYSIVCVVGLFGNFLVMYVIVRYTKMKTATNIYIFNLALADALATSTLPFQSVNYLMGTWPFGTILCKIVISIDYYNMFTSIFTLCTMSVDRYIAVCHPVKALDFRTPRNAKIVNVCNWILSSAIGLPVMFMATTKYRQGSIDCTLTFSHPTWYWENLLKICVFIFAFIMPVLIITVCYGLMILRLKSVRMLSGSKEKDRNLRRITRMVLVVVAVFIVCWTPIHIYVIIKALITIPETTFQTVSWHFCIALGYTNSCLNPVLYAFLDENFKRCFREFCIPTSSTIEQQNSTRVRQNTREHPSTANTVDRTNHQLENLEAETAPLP
measured_parameter: Ki (pM)

* Cc1cc(O)cc(C)c1C[C@H](N)C(=O)N(C1CC1)[C@@H]1CCNc2ccc(Cc3ccccc3)cc21 [Compound 1015] | 25600
* Cc1cc(O)cc(C)c1C[C@H](N)C(=O)N[C@H]1CCNc2ccc(Oc3ccccc3)cc21 [Compound 1018] | 41300
* Cc1ccc(Cc2ccc3c(c2)[C@@H](NC(=O)[C@@H](N)Cc2c(C)cc(O)cc2C)CCN3)cc1 [Compound 1008] | 11000
* Cc1cc(O)cc(C)c1C[C@H](N)C(=O)N[C@@H]1CCS(=O)(=O)c2ccc(Cc3ccccc3)cc21 [Compound 1124] | 60
* Cc1cc(O)cc(C)c1C[C@H](N)C(=O)N[C@@H]1CCNc2c(CN3CCCCC3)cc(Cc3ccccc3)cc21 [Compound 1097] | 70
* Cc1cc(O)cc(C)c1C[C@H](N)C(=O)N[C@@H]1CCNc2c(C(=O)NCc3ccccc3)cc(Cc3ccccc3)cc21 [Compound 1104] | 360
* Cc1cc(O)cc(C)c1C[C@H](N)C(=O)N[C@H]1c2cc(Cc3ccccc3)ccc2NC[C@H]1C [Compound 1078] | 750
